- ASSAY_METHOD_TEXT: Specific activity of purified CHI, absorbance decrease at 384 nm, hesperetin chalcone; note: unit not given here
- Type: biochemical
- ASSAY_SETUP: purified CHI in 50 mM PBS, 100 μM substrate, 25° C.
MEASUREMENT_TYPE: Specific activity, Hesperetin chalcone
// return just the number, without any unit appended

The measured Specific activity, Hesperetin chalcone associated with CHI12: Chalcone isomerase from Holophaga foetida, access no. WP_005036737.1 (protein, listed as Holophaga foetida) TVEFCPMRSLIYVGLSKEKYRHLLQNWLYRIHIPDSISQFGPYVTKYAFYNALPVPPEGERFGTIKMQLTEHYWQCNPFQQAVAVKTFKEVFPIDVLRWQGNMPDESDGAVELEGDEARSAKGGQGAKPFIFAFVPLWWEEDIKGKMRTIADGPNYRWQFVMKYPEGVSQEQGDKWFLEEVAPAFAAMPEVNRILSSKIIQNVNGCSFNRVVEMWFDGPDEWYAAAVTKAAALPKPTWAKQDKFPFLASDYEFASVFLTDYATSDNLSQYRGYITLR reads 36.5
